Test system: PKC mediated IL-2 production
methodDescription: IL-2 ELISA, human primary T cell, anti CD3+CD28+
Format: cell-based
testContext: human primary T cells stimulated with αCD3 and αCD28, 24 hours
pEC50: −log10 of the molar value.
readoutLabel: pEC50

Solved entries:
CC1C(Nc2nc(Nc3cc(OC(F)F)c(C4CC4)cc3F)ncc2F)CC(C)(C)N2CCCC12 (centres unmarked) :: 6.30 to 7.00
CC(C)N1CCC(Oc2ccc(Nc3ncc(F)c(N[C@H]4C[C@@H]5CCCN5C(C)(C)C4)n3)cc2OC(F)F)CC1 (single isomer, unassigned) :: 6.30 to 7.00
CC1(C)Oc2ccc(Nc3ncc(F)c(N[C@H]4C[C@@H]5CCCN5C(C)(C)C4)n3)cc2-n2nnnc21 (single isomer, unassigned) :: 6.00 to 6.30
CC1C(Nc2nc(Nc3cc(N(C)C(=O)N(C)C)c(C4CC4)cc3F)ncc2F)CC(C)(C)N2CCCC12 (centres unmarked) :: 6.30 to 7.00
C[C@@H](O)COc1cc(F)c(Nc2ncc(F)c(N[C@@H]3C[C@@H]4CCCN4C(C)(C)C3)n2)cc1-n1nnn(C)c1=O :: > 7.00
CC(C)N1CCC(Oc2ccc(Nc3ncc(F)c(NC4CC5CCCN5C(C)(C)C4)n3)cc2OC(F)F)CC1 (centres unmarked) :: 6.30 to 7.00
Cn1nnn(-c2cc(Nc3ncc(F)c(N[C@@H]4CCN5[C@@H](CCC5(C)C)C4)n3)c(F)cc2C2CC2)c1=O (single isomer, unassigned) :: 5.00 to 6.00
CC1(C)Oc2ccc(Nc3ncc(F)c(N[C@@H]4C[C@H]5CCCN5C(C)(C)C4)n3)cc2-n2nnnc21 :: > 7.00

Param item: COc1cc(Nc2ncc(F)c(N[C@H]3C[C@H]4CCCN4C(C)(C)C3)n2)cc(-n2nnnc2C)c1 (single isomer, unassigned) ; param system: PKC mediated IL-2 production; output pEC50: 5.00 to 6.00

Param item: `CC1(C)Oc2ccc(Nc3ncc(F)c(N[C@H]4C[C@H]5CCCN5C(C)(C)C4)n3)cc2-n2nnnc21` ; param system: PKC mediated IL-2 production; output pEC50: 6.30 to 7.00

Param item: CC(C)N1CCC(Oc2ccc(Nc3ncc(F)c(N[C@@H]4C[C@@H]5CCCN5C(C)(C)C4)n3)cc2OC(F)F)CC1 (single isomer, unassigned) ; param system: PKC mediated IL-2 production; output pEC50: 6.30 to 7.00

Cited source for all entries: patent US9682976B2
